Numbers sourced from patent US10344025B2.

# Target: purified recombinant human GAC (GLS1) (Homo sapiens (Human), UniProt O94925)
# Sequence (O94925 other isoform, or with tags, fused parts or gaps): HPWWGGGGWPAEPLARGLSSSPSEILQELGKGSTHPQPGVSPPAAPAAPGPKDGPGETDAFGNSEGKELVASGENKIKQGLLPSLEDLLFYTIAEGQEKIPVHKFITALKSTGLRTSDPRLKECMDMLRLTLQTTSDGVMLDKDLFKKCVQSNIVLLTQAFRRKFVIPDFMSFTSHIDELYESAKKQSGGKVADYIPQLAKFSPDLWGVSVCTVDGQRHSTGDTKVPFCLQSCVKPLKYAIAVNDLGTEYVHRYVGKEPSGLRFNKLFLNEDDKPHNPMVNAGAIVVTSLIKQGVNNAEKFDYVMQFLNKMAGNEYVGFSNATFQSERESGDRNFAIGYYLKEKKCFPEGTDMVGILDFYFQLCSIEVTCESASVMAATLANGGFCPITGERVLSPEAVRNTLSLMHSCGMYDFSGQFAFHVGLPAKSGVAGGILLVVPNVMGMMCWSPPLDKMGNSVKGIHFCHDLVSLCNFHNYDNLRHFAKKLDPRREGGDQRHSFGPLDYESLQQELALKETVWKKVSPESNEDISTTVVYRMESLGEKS
# Assay Remarks: GLS1 Enzymatic Activity Assay (dual-coupled enzymatic assay, resorufin/Amplex UltraRed readout);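 note: glutamate from GAC coupled via glutamate oxidase and peroxidase to resorufin, read as fluorescence (ex 530, em 590 nm) kinetically or at 20 min, four-parameter logistic IC50 fit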
Recorded IC50 by entry

Reported IC50 for O=C(Cc1ccccn1)Nc1nnc(CCC(F)Cn2cc(C(=O)NCc3cccc(OC(F)(F)F)c3)nn2)s1 (stereo not shown) was < 100 nM

O=C(NCc1cncc(C(F)(F)F)c1)c1cn(CC(F)CCc2nnc(C(=O)NCCC(F)(F)F)s2)nn1 (stereo not shown) has a reported IC50 of 100 to 500 nM

Recorded IC50 (compound O=C(Cc1cc(OC(F)(F)F)ccc1F)Nc1cn(CCC(F)Cn2cc(C(=O)NCc3cc(OC(F)(F)F)ccc3F)nn2)nn1 (stereo not shown) ): < 100 nM

Value of IC50 reported for the compound CNC(=O)c1cn(CCC(F)Cn2cc(C(=O)NCc3cccc(CNC(=O)OC(C)(C)C)c3)nn2)nn1 (stereo not shown) is < 100 nM

Briefly, IC50 measured for CNC(=O)c1cn(CC(F)CCc2nnc(C(=O)NCc3ccccn3)s2)nn1 (stereo not shown) : 100 to 500 nM

The recorded IC50 for entry O=C(CN1CC(F)(F)C1)Nc1cn(CC(F)CCn2cc(C(=O)NCc3ccccn3)nn2)nn1 (stereo not shown) equals 500 to 5000 nM

CNC(=O)c1cn(CCCCc2ccc(NC(=O)Cc3cccc(N(C)C)c3)nn2)nn1 yielded IC50 of < 100 nM

Lab book: IC50 of CNC(=O)c1cn(CC(F)CCc2nnc(NC(=O)Cc3cccnc3)s2)nn1 (stereo not shown) noted as < 100 nM

Reported IC50 ( O=C(NCc1cc(OC(F)(F)F)ccc1F)c1cn(CC(F)CCc2nnc(NC(=O)c3ccccn3)s2)nn1 (stereo not shown) ) = < 100 nM

// sample O=C(NCc1ccccn1)c1cn(CCCCc2nnc(C(=O)NCc3cccc(OC(F)(F)F)c3)s2)nn1 , its IC50 was < 100 nM

Reported IC50 for CCNC(=O)c1cn(CCC(F)Cn2cc(C(=O)NCc3cc(C(F)(F)F)ccn3)nn2)nn1 (stereo not shown) was 500 to 5000 nM

Lab note: O=C(Cc1ccc(Cl)cc1F)Nc1cn(CCCCn2cc(C(=O)NCc3ccccn3)nn2)nn1 gave IC50 of 100 to 500 nM

Value of measured IC50 for the entry CNC(=O)c1cn(CCC(F)Cn2cc(C(=O)NCc3cncc4ccccc34)nn2)nn1 (stereo not shown) : 100 to 500 nM

Entry under test: O=C(Cc1cc(Cl)ccc1F)Nc1cn(CCCCn2cc(C(=O)NCc3ncccc3F)nn2)nn1 . Its IC50 was 100 to 500 nM

Kindly note the recorded IC50 for O=C(NCc1cccc(C(F)(F)F)c1)c1cn(CCCCn2cc(C(=O)NCC3CCCCO3)nn2)nn1 (stereo not shown) , which is 100 to 500 nM

The recorded IC50 for O=C(NCc1cc(C(F)(F)F)ccn1)c1cn(CCCCn2cc(C(=O)N[C@H](CO)c3ccccc3)nn2)nn1 is 500 to 5000 nM

Query Cc1ccc(CNC(=O)c2cn(CCCCn3cc(NC(=O)Cc4cccc(OC(F)(F)F)c4)nn3)nn2)cn1 yields IC50 of < 100 nM

Field IC50 (entry O=C(CC1CC1)Nc1cn(CCCCn2cc(C(=O)NCc3ccccn3)nn2)nn1 ) reads 500 to 5000 nM

Lookup result for CC(=O)Nc1ccc(CCCCc2nnc(C(=O)NCc3cc(C(F)(F)F)ccn3)s2)nn1 ; measured IC50: < 100 nM
